These data points were gathered from ChEMBL document CHEMBL2417491.

System: Leishmania donovani
Experiment: Antileishmanial activity against Leishmania donovani amastigotes infected in mouse J774A1 cells after 72 hrs by luciferase reporter gene assay
Type: functional, organism-based
Conditions: J774.A1, 72 h
endpoint.label: pIC50
Bear in mind: pIC50 is minus log10 of a mol/L concentration; give just that figure.

compound	pIC50
CCOc1cc(/C=C/c2cc(SC)nc(N)n2)ccc1OC1CCCCO1 (centres undefined)	4.89

API: value(readout=pIC50, system=Leishmania donovani) for record COc1ccc(Nc2cc(/C=C/c3ccc(OCc4ccccc4)cc3)nc(N)n2)cc1
6.30

API: value(readout=pIC50, system=Leishmania donovani) for record CSc1cc(/C=C/c2ccc(OS(=O)(=O)[O-])cc2)nc(N)n1.[Na+]
5.20

API: value(readout=pIC50, system=Leishmania donovani) for record COc1ccc(Nc2cc(/C=C/c3ccc(OC4CCCCO4)cc3)nc(N)n2)cc1 (centres undefined)
5.57

API: value(readout=pIC50, system=Leishmania donovani) for record CSc1cc(/C=C/c2ccc(OC3CCCCO3)cc2)nc(N)n1 (centres undefined)
5.44

API: value(readout=pIC50, system=Leishmania donovani) for record CSc1cc(/C=C/c2ccc(OCc3ccccc3)cc2)nc(N)n1
5.70

API: value(readout=pIC50, system=Leishmania donovani) for record COc1ccc(/C=C/c2cc(SC)nc(N)n2)cc1
5.04

API: value(readout=pIC50, system=Leishmania donovani) for record COc1ccc(/C=C/c2cc(SC)nc(N)n2)cc1OC
5.70
